Source listed as ChEMBL document CHEMBL5291721.

# TARGET ENTITY: Prostaglandin G/H synthase 1 (Rattus norvegicus, UniProt Q63921); also: assay procedure not described here
# Sequence (Q63921 whole entry): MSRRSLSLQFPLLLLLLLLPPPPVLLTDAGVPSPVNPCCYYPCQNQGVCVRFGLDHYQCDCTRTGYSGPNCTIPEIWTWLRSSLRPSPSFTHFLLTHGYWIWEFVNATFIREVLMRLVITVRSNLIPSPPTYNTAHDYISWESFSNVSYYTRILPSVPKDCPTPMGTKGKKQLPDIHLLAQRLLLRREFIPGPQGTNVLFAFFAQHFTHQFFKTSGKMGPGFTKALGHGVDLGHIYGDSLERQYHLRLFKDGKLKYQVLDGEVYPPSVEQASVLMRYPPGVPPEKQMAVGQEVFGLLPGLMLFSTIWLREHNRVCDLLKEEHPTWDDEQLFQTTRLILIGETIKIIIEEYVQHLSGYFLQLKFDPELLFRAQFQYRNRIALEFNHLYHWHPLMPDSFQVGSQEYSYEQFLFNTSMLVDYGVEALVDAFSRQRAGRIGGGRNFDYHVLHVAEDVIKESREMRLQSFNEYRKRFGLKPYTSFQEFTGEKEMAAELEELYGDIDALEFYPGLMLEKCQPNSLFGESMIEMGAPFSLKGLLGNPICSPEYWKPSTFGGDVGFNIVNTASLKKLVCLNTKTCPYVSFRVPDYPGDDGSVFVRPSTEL
# Type: functional
Give AC50 for every item shown.

Please review the following examples before continuing.
(Q) Which AC50 value is on record for Cc1onc(-c2ccccc2)c1-c1ccc(S(N)(=O)=O)cc1 [VALDECOXIB] ?
(A) > 30 µM

(Q) Any idea what its AC50 is? The compound is CC(C)COCC(CN(Cc1ccccc1)c1ccccc1)N1CCCC1 (stereo not drawn) [BEPRIDIL]
(A) > 30 µM

Here's the next entry for you.
(Q) Fill blank: measured AC50 of the compound COc1ccccc1OCCNCC(O)COc1cccc2[nH]c3ccccc3c12 (stereo not drawn) [CARVEDILOL] is ____.
(A) > 30 µM

----------
Assay read-out AC50; system under study: UniProt P35372.
Sequence (P35372 whole entry): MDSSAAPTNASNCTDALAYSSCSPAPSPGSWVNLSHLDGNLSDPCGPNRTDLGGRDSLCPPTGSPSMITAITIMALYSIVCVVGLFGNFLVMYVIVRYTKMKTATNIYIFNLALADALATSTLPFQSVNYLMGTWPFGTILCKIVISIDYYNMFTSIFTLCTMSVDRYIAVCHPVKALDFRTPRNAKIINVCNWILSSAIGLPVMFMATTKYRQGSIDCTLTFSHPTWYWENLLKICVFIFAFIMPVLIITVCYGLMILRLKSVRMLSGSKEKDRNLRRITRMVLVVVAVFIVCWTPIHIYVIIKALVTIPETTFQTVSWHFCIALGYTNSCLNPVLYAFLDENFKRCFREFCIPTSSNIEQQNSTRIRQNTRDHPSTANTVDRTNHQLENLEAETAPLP

# count of solved cases: 5
(Q) What value of AC50 has been recorded for this entry: CC(C)(C)NC[C@H](O)COc1cccc2c1CCCC2=O
(A) > 30 µM

(Q) Entry NCC(CC(=O)O)c1ccccc1 (stereo not given) has what AC50?
(A) > 30 µM

(Q) // query AC50 value for entry CC[C@@H]([C@H](C)O)n1ncn(-c2ccc(N3CCN(c4ccc(OC[C@@H]5CO[C@@](Cn6cncn6)(c6ccc(F)cc6F)C5)cc4)CC3)cc2)c1=O
(A) > 30 µM

(Q) Could you share which AC50 value was measured for Cc1c(N(C)CS(=O)(=O)O)c(=O)n(-c2ccccc2)n1C ?
(A) > 30 µM

(Q) What does the record list as AC50 for CCCc1nc(C(C)(C)O)c(C(=O)O)n1Cc1ccc(-c2ccccc2-c2nnn[nH]2)cc1 ?
(A) > 30 µM

Give me AC50 for each of these compounds, listed below.
1. C=CCSCC1Nc2cc(Cl)c(S(N)(=O)=O)cc2S(=O)(=O)N1 (stereo not given) [ALTHIAZIDE]
2. OC[C@H]1O[C@@](CO)(O[C@H]2O[C@H](CO)[C@@H](O)[C@H](O)[C@H]2O)[C@@H](O)[C@@H]1O
3. O=C1/C(=C2\Nc3ccc(S(=O)(=O)O)cc3C2=O)Nc2ccc(S(=O)(=O)O)cc21 [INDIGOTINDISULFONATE]
4. COc1cc2nccc(Oc3ccc(NC(=O)C4(C(=O)Nc5ccc(F)cc5)CC4)cc3)c2cc1OC [CABOZANTINIB]

(A)
> 30 µM
> 30 µM
> 30 µM
> 30 µM

List the reported AC50 of each compound below.
1. C[C@]1(Cn2ccnn2)[C@H](C(=O)O)N2C(=O)C[C@H]2S1(=O)=O
2. CNC(=O)Oc1cccc2ccccc12

(A)
["> 30 µM", "> 30 µM"]

Please look at the items below and tell me AC50 for each one, in order.
1. CC(=O)O[C@]1(C(C)=O)CC[C@H]2[C@@H]3C=C(Cl)C4=CC(=O)CC[C@]4(C)[C@H]3CC[C@@]21C [CHLORMADINONE ACETATE]
2. CCN(CC)C(=S)S
3. CCCN(CCC)C(=O)Cc1c(-c2ccc(Cl)cc2)nc2ccc(Cl)cn12

(A)
["> 30 µM", "> 30 µM", "15.5 µM"]

// each listed compound needs a value for AC50
1. CC1=CCC(C(C)(C)O)CC1O (stereo not given)
2. Nc1c2ccccc2nc2ccccc12

(A)
1. > 30 µM
2. 13.8 µM

Please state AC50 for every compound in the list that follows.
1. CC[C@@]1(O)C(=O)OCc2c1cc1n(c2=O)Cc2cc3c([N+](=O)[O-])cccc3nc2-1
2. CC(CN1CC(=O)NC(=O)C1)N1CC(=O)NC(=O)C1 (stereo not given)
3. CN1CCCCC1CCN1c2ccccc2Sc2ccc([S+](C)[O-])cc21 (stereo not given)
4. Nc1ccc(C(=O)Oc2ccccc2)c(O)c1 [PHENYL AMINOSALICYLATE]
5. C=C1CC[C@H](O)C/C1=C/C=C1\CCC[C@]2(C)[C@@H]([C@H](C)/C=C/[C@H](C)C(C)C)CC[C@@H]12
6. c1ccc2c(c1)CCc1ccccc1N2C1CN2CCC1CC2 (stereo not given)

(A)
> 30 µM
> 30 µM
2.99 µM
> 30 µM
> 30 µM
1.84 µM

Please give AC50, item by item, for the list that follows.
1. CC(=O)O[C@]1(C(C)=O)CC[C@H]2[C@@H]3C=C(C)C4=CC(=O)CC[C@@H]4[C@H]3CC[C@@]21C [NOMEGESTROL ACETATE]
2. COc1cc2c(cc1OC)CC(=O)N(CCCN(C)C[C@H]1Cc3cc(OC)c(OC)cc31)CC2
3. COC(=O)c1ccc(O)cc1

(A)
1: > 30 µM; 2: > 30 µM; 3: > 30 µM
